Tested on: soluble epoxide hydrolase (sEH)
Assay: Fluorescent assay for mouse and human soluble epoxide hydrolase (CMNPC substrate)
Type: biochemical
Conditions: inhibitor conc. 2000 nM
MEASURED METRIC: % Inh (%)
Your answer is read as %, so omit the unit and give the number.

Worked cases, answers included:
O=C(Nc1ccc(Oc2ccc(C(=O)O)cc2)cc1)Nc1cccc(C(F)(F)F)c1: 99
O=C(Nc1ccc(Oc2ccc(C(=O)O)cc2)cc1)Nc1ccc(C(F)(F)F)cc1: 100
O=C(Nc1ccc(Oc2ccc(C(=O)O)cc2)cc1)Nc1ccc(OC(F)(F)F)cc1: 100
O=C(Nc1ccc(C(F)(F)F)cc1)Nc1cccc(Oc2cccc(C(=O)O)c2)c1: 98

get_value(item= O=C(Nc1ccc(Oc2ccc(C(=O)O)cc2)cc1)NC12CC3CC(CC(C3)C1)C2 , readout=% Inh) returns 100

get_value(item= O=C(Nc1ccc(OC(F)(F)F)cc1)N[C@H]1CC[C@H](Oc2ccc(C(=O)O)cc2)CC1 , readout=% Inh) returns 100

get_value(item= O=C(Nc1cccc(Oc2cccc(C(=O)O)c2)c1)NC12CC3CC(CC(C3)C1)C2 , readout=% Inh) returns 95

get_value(item= O=C(Nc1ccc(C(F)(F)F)cc1)N[C@H]1CC[C@H](Oc2ccc(C(=O)O)cc2)CC1 , readout=% Inh) returns 95

get_value(item= O=C(Nc1ccc(C(F)(F)F)cc1)Nc1cccc(Oc2ccc(C(=O)O)cc2)c1 , readout=% Inh) returns 100

The measured values listed here are drawn from patent US20090023731A1.
